- Measured target: histamine-H2 receptors (Cavia porcellus, UniProt P47747)
- Construct: determined on the isolated atrium or ileum of the guinea-pig; from tissue; host or cells: isolated right atrium of the guinea-pig
- Sequence (P47747 whole entry): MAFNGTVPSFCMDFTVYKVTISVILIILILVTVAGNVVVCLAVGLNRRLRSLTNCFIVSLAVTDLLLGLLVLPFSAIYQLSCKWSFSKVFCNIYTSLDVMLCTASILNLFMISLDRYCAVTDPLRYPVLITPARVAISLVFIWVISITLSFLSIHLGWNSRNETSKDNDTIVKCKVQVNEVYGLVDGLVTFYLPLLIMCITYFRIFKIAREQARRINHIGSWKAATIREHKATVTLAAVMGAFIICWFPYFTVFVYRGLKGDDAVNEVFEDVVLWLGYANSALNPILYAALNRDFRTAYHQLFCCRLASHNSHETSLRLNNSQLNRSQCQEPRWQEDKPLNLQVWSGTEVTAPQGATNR
- Experiment: cell-based
- Set-up: species or system guinea-pig
- Reported conditions: isolated right atrium of the guinea pig; read-out: pD2 right atrium (H2-agonistic effect) (converted)
Where a name gives a salt, the structure may show the parent alone.
Property name: EC50 (nM)

Some molecules with known EC50 results, for comparison:
| Molecule | Measured target | EC50 (nM) |
| --- | --- | --- |
| N=C(NCCCc1c[nH]cn1)NCCN(c1ccccc1)c1ccc(F)cc1 [Example 146, trihydrochloride] | histamine-H2 receptors (Cavia porcellus, UniProt P47747) | 1100 |
| N=C(NCCCc1c[nH]cn1)NCCCC(c1ccccc1)c1ccccc1 | histamine-H2 receptors (Cavia porcellus, UniProt P47747) | 200 |
| N=C(NCCCCc1cccnc1)NCCCc1c[nH]cn1 [Example 12, trihydrochloride] | histamine-H2 receptors (Cavia porcellus, UniProt P47747) | 200 |
| COc1ccc(CN(CCN=C(N)NCCCc2c[nH]cn2)c2ccccn2)cc1 | histamine-H2 receptors (Cavia porcellus, UniProt P47747) | 1580 |
| N=C(NCCCc1c[nH]cn1)NCCN(Cc1ccccc1)c1ccc(F)cc1 [Example 102, trihydrochloride] | histamine-H2 receptors (Cavia porcellus, UniProt P47747) | 234 |

1 = N=C(NCCCc1c[nH]cn1)NCCN(c1ccccc1)c1ccccn1 [Example 147, trihydrochloride]
2 = NC(=NCCN(Cc1ccc(F)cc1)c1ccccn1)NCCCc1c[nH]cn1
// max by EC50 over [ 1 , 2 ] Please identify the chosen entry by its label.
2
(2: 1950 nM, 1: 100 nM)

====

- Measured target: histamine-H2 receptors (Cavia porcellus, UniProt P47747)
- Construct: determined on the isolated atrium or ileum of the guinea-pig; from tissue; host or cells: isolated right atrium of the guinea-pig
- Experiment: cell-based
- Parameters: species or system guinea-pig
Property name: EC50 (nM)
Write down the numeric answer in nM and omit the unit.

Entry N=C(NCCCc1c[nH]cn1)NCCSCc1cccs1 has what EC50?
51.3

====

- Measured target: histamine-H2 receptors (Cavia porcellus)
- Construct: determined on the isolated atrium or ileum of the guinea-pig; from tissue; host or cells: isolated right atrium of the guinea-pig
- Experiment: cell-based
- Set-up: species or system guinea-pig
- Reported conditions: isolated right atrium of the guinea pig; read-out: pD2 right atrium (H2-agonistic effect) (converted)
Where a name gives a salt, the structure may show the parent alone.
Property name: EC50 (nM)

Worked examples follow.
| Molecule | Property name | Units text | Reported measurement |
| --- | --- | --- | --- |
| N=C(NCCCc1c[nH]cn1)NCCN(Cc1ccc(Cl)cc1)c1ccccn1 | EC50 | nM | 1000 |
| Cc1cc(Br)cnc1CCCCNC(=N)NCCCc1c[nH]cn1 [Example 17, trihydrochloride] | EC50 | nM | 1200 |
| N=C(NCCCc1c[nH]cn1)NCCC(c1ccc(Cl)cc1)c1ccccn1 (centres unmarked) | EC50 | nM | 63.1 |
| N=C(NCCCc1c[nH]cn1)NCCN(c1ccccc1)c1ccccc1 [Example 145, trihydrochloride] | EC50 | nM | 6030 |
| N=C(NCCCc1c[nH]cn1)NCCN(Cc1ccccc1)c1ccc(Br)cc1 [Example 104, trihydrochloride] | EC50 | nM | 6920 |

I = N=C(NCCCc1c[nH]cn1)NCCN(c1ccc(F)cc1)c1ccccn1 [Example 148, trihydrochloride]
II = CC(CSCc1ccccn1)NC(=N)NCCCc1c[nH]cn1 (centres unmarked)
Which value of EC50 is numerically greater: that of I or that of II ? Answer = label.
I
(I: 316 nM, II: 51.3 nM)
